These data points were gathered from PubChem BioAssay (NCATS).

- ASSAY EXPLANATION: HEK-293 Cancer Cell Toxicity qHTS against the NCATS CANVASS Library (AID 1347355); note: nearly all actives have a fitted effect of over 65% in size
- SETUP CONDITIONS: HEK-293 viability, CellTiter-Glo luminescence, 72 h; series mostly up to 46.1 µM
Records with an inconclusive call do not appear. Active and inactive are the calls of the source. Calls come from the whole dose curve; as a rule, active = well fitted cell-killing curve with a large enough effect; inconclusive = small, poorly fitted or top-dose-only effect; inactive = flat fitted curve, though single readings scatter.
Classes used: label 1 (active), label 0 (inactive)

[
  {
    "COMPOUND": "O=Cc1ccc2n1C[C@]1(OC2)O[C@H](CO)[C@@H](O)[C@@H]1O",
    "ANSWER LABEL": "label 0"
  },
  {
    "COMPOUND": "C=C1C(=O)O[C@H]2[C@H]1CCC(C)=C1CC[C@@](C)(O)[C@@H]12",
    "ANSWER LABEL": "label 1"
  },
  {
    "COMPOUND": "CN1CC[C@@]2([C@@]34CCN(C)[C@@H]3Nc3ccccc34)c3ccccc3N[C@@H]12",
    "ANSWER LABEL": "label 0"
  },
  {
    "COMPOUND": "CC(C)=CC[C@H]1C[C@@]2(CC=C(C)C)C(=O)[C@](CC=C(C)C)(C(=O)C(C(=O)c3ccccc3)=C2O)C1(C)C",
    "ANSWER LABEL": "label 1"
  },
  {
    "COMPOUND": "C=C1CCC2C(C)(C(=O)O)CCC(CC/C(C)=C/C(=O)NC(CCC(N)=O)C(=O)O)[C@@]2(C)C1 (stereo not given in full)",
    "ANSWER LABEL": "label 0"
  },
  {
    "COMPOUND": "CO[C@H]1/C=C/CCCCC(=O)O[C@@H](/C(C)=C/[C@H](C)C(=O)C[C@H](O)CC2CC(=O)NC(=O)C2)[C@@H](C)C1",
    "ANSWER LABEL": "label 1"
  },
  {
    "COMPOUND": "C[C@@]1(CCC(=O)Nc2c(O)ccc(C(=O)O)c2O)C(=O)C=C[C@]23C[C@H]4C[C@H](O[C@@]4(C)C2)C31 (stereo not given in full)",
    "ANSWER LABEL": "label 0"
  },
  {
    "COMPOUND": "O=C1OC(CCO)c2cccc(O)c21 (stereo not given)",
    "ANSWER LABEL": "label 0"
  },
  {
    "COMPOUND": "COC(=O)[C@@]12Oc3cccc(O)c3C(O)=C1C(=O)C[C@H](C)[C@H]2O",
    "ANSWER LABEL": "label 0"
  },
  {
    "COMPOUND": "C/C=C/[C@H]1[C@H]2C(=O)c3c(O)c(C)c(O)c(C)c3[C@]1(C(=O)O)C(=O)C=C2C",
    "ANSWER LABEL": "label 0"
  },
  {
    "COMPOUND": "C=C1[C@@]2(C)CC3C4(C)CCC(O)C(C)(C)C4CCC3(C)[C@]1(C(=O)OC)C(=O)C(C)(O)C2=O (stereo not given in full)",
    "ANSWER LABEL": "label 0"
  },
  {
    "COMPOUND": "O=C1c2c(O)cc(O)cc2OC(c2ccc(O)cc2)C1O (stereo not given)",
    "ANSWER LABEL": "label 0"
  },
  {
    "COMPOUND": "CC(=O)N[C@H](C)c1nc(/C=C/C=C/C(=O)CC2CC(=O)CC[C@]2(C)O)cs1 (stereo not given in full)",
    "ANSWER LABEL": "label 0"
  },
  {
    "COMPOUND": "COc1ccc([C@@H]2c3cc4c(cc3C(=O)C(C)C2C)OCO4)cc1OC (stereo not given in full)",
    "ANSWER LABEL": "label 0"
  },
  {
    "COMPOUND": "C/C(=C\\[C@@H](C)CC/C=C/CC/C=C/C(=O)O)[C@H](O)[C@H](C)C(=O)CCCC1CC(=O)NC(=O)C1",
    "ANSWER LABEL": "label 0"
  }
]
